Reported koff values for a set of binders
- ASSAY TARGET: T1, D1 domain of human IL-2Rγ extracellular domain expressed with a C-terminal myc-myc-hexahistidine tag (human)
- T1 construct: also called human IL2Rγ domain 1
- T1 chain: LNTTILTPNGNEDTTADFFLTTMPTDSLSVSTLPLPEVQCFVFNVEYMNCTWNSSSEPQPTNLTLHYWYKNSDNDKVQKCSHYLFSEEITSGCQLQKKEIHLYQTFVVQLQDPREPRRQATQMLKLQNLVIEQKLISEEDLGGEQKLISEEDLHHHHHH
- PROCEDURE TEXT: SPR, mAb captured on anti-hFc, 25 C
Response body: numeric value in s⁻¹, unit text excluded.

stdin: Item under review: H4H12863P (antibody, human IgG4 S228P, kappa, V domains shown, human IgG4) VH: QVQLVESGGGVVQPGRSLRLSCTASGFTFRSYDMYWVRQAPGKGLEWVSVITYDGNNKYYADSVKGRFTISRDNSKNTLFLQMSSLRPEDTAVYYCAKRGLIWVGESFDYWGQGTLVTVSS VL: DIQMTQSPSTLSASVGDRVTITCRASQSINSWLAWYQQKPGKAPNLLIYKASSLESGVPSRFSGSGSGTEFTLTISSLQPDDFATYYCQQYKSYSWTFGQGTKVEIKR . Reported koff?
stdout: 0.000538

stdin: Entry under review: H4H12884P (antibody, human IgG4 S228P, kappa, V domains shown, human IgG4) VH: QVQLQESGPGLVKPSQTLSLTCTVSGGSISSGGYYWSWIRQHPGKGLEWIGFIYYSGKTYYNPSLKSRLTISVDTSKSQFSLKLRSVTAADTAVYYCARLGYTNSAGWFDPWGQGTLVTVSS VL: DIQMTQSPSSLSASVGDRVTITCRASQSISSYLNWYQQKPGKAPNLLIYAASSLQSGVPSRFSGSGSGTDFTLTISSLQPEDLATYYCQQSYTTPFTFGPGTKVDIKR . Reported koff?
stdout: 0.00196

stdin: Any idea what its koff is? The binder is H4H12871P (antibody, human IgG4 S228P, kappa, V domains shown, human IgG4; also called REGN9434) VH: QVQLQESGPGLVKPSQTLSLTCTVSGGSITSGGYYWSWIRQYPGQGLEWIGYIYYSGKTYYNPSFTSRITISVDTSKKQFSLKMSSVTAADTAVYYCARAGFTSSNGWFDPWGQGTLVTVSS VL: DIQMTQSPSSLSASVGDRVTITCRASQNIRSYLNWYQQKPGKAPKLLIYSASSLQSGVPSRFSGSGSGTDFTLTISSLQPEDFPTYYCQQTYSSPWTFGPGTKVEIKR
stdout: 0.00111

stdin: So what does the record say about koff for H4H12889P (antibody, human IgG4 S228P, kappa, V domains shown, human IgG4; also called REGN7257) VH: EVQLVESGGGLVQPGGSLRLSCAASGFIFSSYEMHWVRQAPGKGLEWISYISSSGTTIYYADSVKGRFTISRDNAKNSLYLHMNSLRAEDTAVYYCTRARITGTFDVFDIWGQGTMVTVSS VL: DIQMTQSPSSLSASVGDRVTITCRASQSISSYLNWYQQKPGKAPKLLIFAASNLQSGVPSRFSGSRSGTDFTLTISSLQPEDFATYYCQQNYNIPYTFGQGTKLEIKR ?
stdout: 0.00107

Data origin, for the record: patent US20200247894A1
